assay: Single oral dose of 14C-labeled 4-aminopyridine (1 mg/kg) in rats; conditions: male, rat, plasma, po, 1 mg/kg
measure-name: Tmax (h)
The figure you give is taken to be in h; do not add the unit.

Task item: Bench note: what Tmax did Nc1ccncc1 [^14C-4-Aminopyridine] show?
Reply: 1

---

experiment: Single oral dose of 14C-labeled 4-aminopyridine (1 mg/kg) in rats; conditions: female, rat, plasma, po, 1 mg/kg
measure-name: half-life (h)
The figure you give is taken to be in h; do not add the unit.

Task item: Bench note: what half-life did Nc1ccncc1 [^14C-4-Aminopyridine] show?
Reply: 1.4

---

experiment: Single oral dose of 14C-labeled 4-aminopyridine (1 mg/kg) in rats; conditions: female, rat, plasma, po, 1 mg/kg
measure-name: Cmax (ng/g)
The figure you give is taken to be in ng/g; do not add the unit.

Task item: Bench note: what Cmax did Nc1ccncc1 [^14C-4-Aminopyridine] show?
Reply: 168

---

assay: Single oral dose of 14C-labeled 4-aminopyridine (1 mg/kg) in rats; conditions: male, rat, plasma, po, 1 mg/kg
measure-name: half-life (h)
The figure you give is taken to be in h; do not add the unit.

Task item: Bench note: what half-life did Nc1ccncc1 [^14C-4-Aminopyridine] show?
Reply: 1.1

---

assay: Single oral dose of 14C-labeled 4-aminopyridine (1 mg/kg) in dogs; format: in vivo; conditions: male, dog, plasma, males, 1 mg/kg oral
measure-name: AUC (ng·h/mL)
The figure you give is taken to be in ng·h/mL; do not add the unit.

Task item: Bench note: what AUC did Nc1ccncc1 [^14C-4-Aminopyridine] show?
Reply: 2030

---

assay: Single oral dose of 14C-labeled 4-aminopyridine (1 mg/kg) in rats; details: female, rat, plasma, po, 1 mg/kg
measure-name: AUC
Note: state the figure and append the unit.

Task item: Bench note: what AUC did Nc1ccncc1 [^14C-4-Aminopyridine] show?
Reply: 506 ng·h/mL

---

test: Single oral dose of 14C-labeled 4-aminopyridine (1 mg/kg) in rats; conditions: male, rat, plasma, po, 1 mg/kg
measure-name: AUC (ng·h/mL)
The figure you give is taken to be in ng·h/mL; do not add the unit.

Task item: Bench note: what AUC did Nc1ccncc1 [^14C-4-Aminopyridine] show?
Reply: 498

---

test: Single oral dose of 14C-labeled 4-aminopyridine (1 mg/kg) in dogs; type: in vivo; conditions: male, dog, plasma, males, 1 mg/kg oral
measure-name: half-life (h)
The figure you give is taken to be in h; do not add the unit.

Task item: Bench note: what half-life did Nc1ccncc1 [^14C-4-Aminopyridine] show?
Reply: 2.1

---

test: Single oral dose of 14C-labeled 4-aminopyridine (1 mg/kg) in dogs; format: in vivo; conditions: female, dog, plasma, females, 1 mg/kg oral
measure-name: Tmax (min)
The figure you give is taken to be in min; do not add the unit.

Task item: Bench note: what Tmax did Nc1ccncc1 [^14C-4-Aminopyridine] show?
Reply: 48

---

assay: Single oral dose of 14C-labeled 4-aminopyridine (1 mg/kg) in rats; details: female, rat, plasma, po, 1 mg/kg
measure-name: Tmax (min)
The figure you give is taken to be in min; do not add the unit.

Task item: Bench note: what Tmax did Nc1ccncc1 [^14C-4-Aminopyridine] show?
Reply: 30
